Data credit: ChEMBL document CHEMBL4513216

In this section we review reported cytotoxicity at 10 µM values for a set of compounds.
# experiment description: Toxicity liver stage against HepG2, at 10uM
# Assay type: cell-based
# Design: test concentration 10 uM, cell line HepG2-A16-CD81EGFP
# condition details: human, HepG2-A16-CD81EGFP cells; read-out: INHIBITION
Enter your answer as a number in %; do not include the unit.

Some solved cases for reference:
- compound: "Cc1ccc(-c2nccn2-c2ccc(OC3CCN(C)CC3)cc2)o1"
  unit abbrev: "%"
  cytotoxicity at 10 µM: -10.4
- compound: "CCc1nnc2n1CCN(CC(=O)N1CCc3ccccc3C1)C2"
  unit abbrev: "%"
  cytotoxicity at 10 µM: -7.83

Query: Given CS(=O)(=O)NC1CCN(C(=O)CCC2CCCO2)CC1 (centres undefined) , state its recorded cytotoxicity at 10 µM.
Response: -0.367

Query: Note, next up: Fc1cccnc1N1CCOCC2(CCCNC2)C1 (centres undefined)
Response: 3.44

Query: Note, next up: O=C(C1CC1)N1CCC2(CC1)CNc1ccc(F)cc12
Response: 11

Query: Note, next up: Cc1noc(C)c1CN1CCc2ncnc(-c3ccncc3)c2CC1
Response: -87

Query: Note, next up: O=C1CN(C(=O)CC2c3ccccc3CCc3ccccc32)CCN1
Response: 9.98

Query: Note, next up: CCc1ncc(C(=O)N2CCOCC2c2c(C)n[nH]c2C)s1 (centres undefined)
Response: -5.61
